# Experiment summary: Biodistribution in ICR mice after an iv injection
# Assay type: in vivo
# Cond: Bone, 30 min after iv injection
Readout name: % dose/g (% dose/g)

Solved cases below.
INSERT INTO results (molecule, numeric_readout) VALUES
  ('CNc1ccc2cc(-c3ccc(OCCOCCOCC[18F])cc3)ccc2c1 [[^18F]19a]', 0.78),
  ('CNc1ccc(-c2ccc3cc(OCCOCCOCCF)ccc3c2)cc1', 0.97);

(A) CN(C)c1ccc(-c2ccc3nc(OCCOCCOCC[18F])ccc3c2)cc1 [[^18F]32a]
(B) CNc1ccc(-c2ccc3nc(OCCOCCOCC[18F])ccc3c2)cc1 [[^18F]34a]
Record comparison, field % dose/g: mark the lower of A and B . Write down the label of the entry you select.
A

----------
# Experiment summary: Biodistribution in ICR mice after an iv injection
# Format: in vivo
# Cond: Lung, 1 hr after iv injection
Readout name: % dose/g (% dose/g)

INSERT INTO measurements (molecule, numeric_readout) VALUES
  ('CNc1ccc2cc(-c3ccc(OCCOCCOCC[18F])cc3)ccc2c1 [[^18F]19a]', 2.68),
  ('CNc1ccc(-c2ccc3cc(OCCOCCOCCF)ccc3c2)cc1', 1.99),
  ('CNc1ccc(-c2ccc3nc(OCCOCCOCC[18F])ccc3c2)cc1 [[^18F]34a]', 2.42),
  ('CN(C)c1ccc(-c2ccc3nc(OCCOCCOCC[18F])ccc3c2)cc1 [[^18F]32a]', 2.21);

----------
# Experiment summary: Biodistribution in ICR mice after an iv injection
# Assay type: in vivo
# Cond: Kidney, 2 hr after iv injection
Readout name: % dose/g (% dose/g)

INSERT INTO results (compound, measurement_units, numeric_readout) VALUES
  ('CNc1ccc(-c2ccc3nc(OCCOCCOCC[18F])ccc3c2)cc1 [[^18F]34a]', '% dose/g', 2.47),
  ('CN(C)c1ccc(-c2ccc3nc(OCCOCCOCC[18F])ccc3c2)cc1 [[^18F]32a]', '% dose/g', 1.78),
  ('CNc1ccc2cc(-c3ccc(OCCOCCOCC[18F])cc3)ccc2c1 [[^18F]19a]', '% dose/g', 2.41),
  ('CNc1ccc(-c2ccc3cc(OCCOCCOCCF)ccc3c2)cc1', '% dose/g', 2.52);

----------
# Experiment summary: Biodistribution in ICR mice after an iv injection
# Type: in vivo
# Cond: Brain, 1 hr after iv injection
Readout name: % dose/organ (% dose/organ)

Solved cases below.
INSERT INTO measurements (compound, readout_name, numeric_readout) VALUES
  ('CN(C)c1ccc(-c2ccc3nc(OCCOCCOCC[18F])ccc3c2)cc1 [[^18F]32a]', '% dose/organ', 0.86),
  ('CNc1ccc(-c2ccc3nc(OCCOCCOCC[18F])ccc3c2)cc1 [[^18F]34a]', '% dose/organ', 0.90);

(a) CNc1ccc2cc(-c3ccc(OCCOCCOCC[18F])cc3)ccc2c1 [[^18F]19a]
(b) CNc1ccc(-c2ccc3cc(OCCOCCOCCF)ccc3c2)cc1
Record comparison, field % dose/organ: mark the lower of a and b . Write down the label of the entry you select.
a

----------
# Experiment summary: Biodistribution in ICR mice after an iv injection
# Format: in vivo
# Cond: Bone, 1 hr after iv injection
# From the text: Biodistribution in ICR Mice After an iv Injection of [^18F][4-(6-{2-[2-(2-Fluoro-ethoxy)-ethoxy]-ethoxy}-naphthalen-2-yl)-phenyl]-methyl-amine in 1% EtOH/0.1% BSA in Water (% dose/organ, avg of 3 mice±SD) (% dose/g, avg of 3 mice±SD) Biodistribution in ICR Mice After an iv Injection of [^18F]19a in 3% EtOH/0.1% BSA in Water Biodistribution in ICR Mice After an iv Injection of [^18F]34a in 5% EtOH/0.1% BSA in Water […]
Readout name: % dose/organ (% dose/organ)

INSERT INTO results (compound, readout_name, measurement_units, numeric_readout) VALUES
  ('CNc1ccc(-c2ccc3nc(OCCOCCOCC[18F])ccc3c2)cc1 [[^18F]34a]', '% dose/organ', '% dose/organ', 5.31);

(a) CN(C)c1ccc(-c2ccc3nc(OCCOCCOCC[18F])ccc3c2)cc1 [[^18F]32a]
(b) CNc1ccc2cc(-c3ccc(OCCOCCOCC[18F])cc3)ccc2c1 [[^18F]19a]
Record comparison, field % dose/organ: mark the lower of a and b . Write down the label of the entry you select.
b
